- Target System: rat µ opioid receptor (rat) (UniProt P33535)
- Sequence (P33535 whole entry): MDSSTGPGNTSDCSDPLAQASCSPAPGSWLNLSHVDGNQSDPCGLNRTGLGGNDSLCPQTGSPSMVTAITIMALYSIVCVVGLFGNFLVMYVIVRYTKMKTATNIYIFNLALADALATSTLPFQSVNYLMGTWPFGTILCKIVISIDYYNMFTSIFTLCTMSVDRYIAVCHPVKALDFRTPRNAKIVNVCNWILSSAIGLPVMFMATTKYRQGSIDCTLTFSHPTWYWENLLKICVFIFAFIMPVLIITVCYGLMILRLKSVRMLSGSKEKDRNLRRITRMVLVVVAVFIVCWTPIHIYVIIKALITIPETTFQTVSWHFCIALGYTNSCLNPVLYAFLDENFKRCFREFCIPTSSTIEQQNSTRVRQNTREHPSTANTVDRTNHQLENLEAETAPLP
- Protocol Text: competition vs [3H]DAMGO, rMOR cell membranes
Bridge positions count the residues as written; N and C are the ends. Square brackets hold non-standard residues; d marks the D form. Ends that are not written are not given here. * marks the point of attachment. NH(3,5-(CF3)2-benzyl) = FC(F)(F)c1cc(CN*)cc(C(F)(F)F)c1; dPen = CC(C)(S)[C@@H](N)C(=O)O; Pen = CC(C)(S)[C@H](N)C(=O)O; Nle = CCCC[C@H](N)C(=O)O
Measured Endpoint: Ki (nM)
Numbers only; they are read as nM.

[ask] Input Y[dPen]GF[Nle]P[Pen]W-{NH(3,5-(CF3)2-benzyl)} (disulfide 2-7) [Tyr[DPenGlyPheNleProPen]TrpNHBn(CF3)2] , output reported Ki.
[reply] 1970
